# key: entry, value: melting point
readout: melting point

compound	measured value
COc1cc2[nH]cc(-c3cc4c(Cl)c(F)cnc4[nH]3)c2nc1OC [Example 9]	283 to 284 °C
COc1cc2c(nc1OC)c(-c1cc3c(Cl)c(F)cnc3[nH]1)cn2CCCN1CCCCC1 [Example 11]	110 to 114 °C
COc1cc2c(nc1OC)c(-c1cc3c(Cl)c(F)cnc3[nH]1)cn2CCCN1CCCN(C)CC1 [Example 13]	140 to 145 °C
COc1cc2c(nc1OC)c(-c1cc3c(Cl)c(F)cnc3[nH]1)cn2CCCN1CCC(O)CC1 [Example 12]	188 °C
COc1cc2c(nc1OC)c(-c1cc3c(Cl)c(F)cnc3[nH]1)cn2CCCN1CCC(CN)CC1 [Example 15]	135 °C
COc1cc2c(nc1OC)c(-c1cc3c(Cl)c(F)cnc3[nH]1)cn2CCCN1CCN(C)CC1 [Example 16]	155 °C
COc1cc2c(nc1OC)c(-c1cc3c(Cl)c(F)cnc3[nH]1)cn2CCN1CCOCC1 [Example 8]	206 °C
COc1cc2c(nc1OC)c(-c1cc3c(Cl)c(F)cnc3[nH]1)cn2CCCN1CCOCC1 [Example 14]	189 °C
COc1cc2c(nc1OC)c(-c1cc3cc(F)cnc3[nH]1)cn2CCN1CCOCC1 [Example 7]	218 °C
